Reference for the values: patent US20200325139A1

test system: Ldtfm; test: Inhibition of L,D-transpeptidase by DBOs, residual nitrocefin hydrolysis; type: biochemical, E. faecium; settings: Inhibitor/Ldtfm molar ratio 10; enzyme 10 μM; 260 min at 37° C.
Residual activity of Ldtfm following pre-incubation values, listed per item
Metric Name: Residual activity of Ldtfm following pre-incubation (%)

INSERT INTO measurements (molecule, uom, number) VALUES
  ('NC(=O)[C@@H]1CC[C@@H]2CN1C(=O)N2OS(=O)(=O)O [Avibactam, reference compound]', '%', 3.4),
  ('O=C1N2C[C@@H](CC[C@H]2Cn2cc(CN3CCOCC3)nn2)N1OS(=O)(=O)[O-].[Na+]', '%', 51.8),
  ('O=C1N2C[C@@H](CC[C@H]2Cn2cc(-c3cccnc3)nn2)N1OS(=O)(=O)O', '%', 34.3),
  ('C[Si](C)(C)c1cn(C[C@@H]2CC[C@@H]3CN2C(=O)N3OS(=O)(=O)O)nn1', '%', 50.7);

====

system: Ldtfm; test: Inhibition of L,D-transpeptidase by DBOs, residual nitrocefin hydrolysis; format: biochemical, E. faecium; conditions: Inhibitor/Ldtfm molar ratio 5; enzyme 10 μM; 260 min at 37° C.
Metric Name: Residual activity of Ldtfm following pre-incubation (%)

INSERT INTO measurements (compound, number) VALUES
  ('C[Si](C)(C)c1cn(C[C@@H]2CC[C@@H]3CN2C(=O)N3OS(=O)(=O)O)nn1 [Compound 2a.i]', 68.0),
  ('O=C1N2C[C@@H](CC[C@H]2Cn2cc(CN3CCOCC3)nn2)N1OS(=O)(=O)[O-].[Na+] [Compound 1a.i.11]', 68.6),
  ('O=C1N2C[C@@H](CC[C@H]2Cn2cc(-c3cccnc3)nn2)N1OS(=O)(=O)O [Compound 1a.i]', 63.6),
  ('NC(=O)[C@@H]1CC[C@@H]2CN1C(=O)N2OS(=O)(=O)O [Avibactam, reference compound]', 15.8);

====

Carbamoylation efficacy of β-lactamase BlaC values, listed per item
biological target: UniProt:P9WKD3; experiment: Carbamoylation of β-lactamase by DBOs, nitrocefin spectrophotometry; assay type: biochemical; conditions: 20° C., nitrocefin 100 μM, MES pH 6.4; highest DBO concentration 100 μM
Sequence (P9WKD3 39-306): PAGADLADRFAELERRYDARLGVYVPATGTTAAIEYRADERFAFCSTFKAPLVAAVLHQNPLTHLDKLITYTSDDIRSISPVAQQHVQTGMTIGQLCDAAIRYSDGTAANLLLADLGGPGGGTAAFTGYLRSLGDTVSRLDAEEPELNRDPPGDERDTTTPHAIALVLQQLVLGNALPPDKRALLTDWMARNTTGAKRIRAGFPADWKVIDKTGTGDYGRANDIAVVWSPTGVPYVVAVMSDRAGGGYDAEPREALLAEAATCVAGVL
Metric Name: Carbamoylation efficacy of β-lactamase BlaC

INSERT INTO measurements (line_notation, result) VALUES
  ('C[Si](C)(C)c1cn(C[C@@H]2CC[C@@H]3CN2C(=O)N3OS(=O)(=O)O)nn1', '<5 × 10^0 M^−1 s^−1'),
  ('O=C1N2C[C@@H](CC[C@H]2Cn2cc(CN3CCOCC3)nn2)N1OS(=O)(=O)[O-].[Na+]', '<5 × 10^0 M^−1 s^−1'),
  ('O=C1N2C[C@@H](CC[C@H]2Cn2cc(-c3cccnc3)nn2)N1OS(=O)(=O)O', '<5 × 10^0 M^−1 s^−1');

====

tested on: Ldtfm; test: Inhibition of L,D-transpeptidase by DBOs, residual nitrocefin hydrolysis; assay type: biochemical, E. faecium; conditions: Inhibitor/Ldtfm molar ratio 2.5; enzyme 10 μM; 260 min at 37° C.
Metric Name: Residual activity of Ldtfm following pre-incubation (%)

INSERT INTO assay_data (compound, test_system, number) VALUES
  ('O=C1N2C[C@@H](CC[C@H]2Cn2cc(CN3CCOCC3)nn2)N1OS(=O)(=O)[O-].[Na+]', 'Ldtfm', 83.9),
  ('NC(=O)[C@@H]1CC[C@@H]2CN1C(=O)N2OS(=O)(=O)O [Avibactam, reference compound]', 'Ldtfm', 36.4),
  ('O=C1N2C[C@@H](CC[C@H]2Cn2cc(-c3cccnc3)nn2)N1OS(=O)(=O)O', 'Ldtfm', 76.1),
  ('C[Si](C)(C)c1cn(C[C@@H]2CC[C@@H]3CN2C(=O)N3OS(=O)(=O)O)nn1', 'Ldtfm', 82.7);
